Some molecules, each annotated with its measured activity at 100 µM.
- Tested on: iCell cardiomyocytes (human iPSC-derived cardiomyocytes)
- test_description: Intracellular Ca2+ flux / beating parameters in iCell cardiomyocytes (FLIPR tetra), 90 min or 24 h
- Assay type: cell-based
- protocol_conditions: Homo sapiens, Cardiomyocyte, 24 h, 100.00 µM; 0.00 µM = 100.00; read-out: cm.decay.rise.24hrs
Where a name gives a salt, the structure may show the parent alone.
reported_property: activity at 100 µM (%)

molecule="O=C1C=CC(=O)C(c2ccc(Cl)cc2)=C1 [4-Cl-BQ, 2-(4-Chlorophenyl)benzo-2,5-quinone]" reported_property="activity at 100 µM" value_observed=0
molecule="Oc1cc(Cl)cc(-c2cccc(Cl)c2)c1 [5-OH PCB 11]" reported_property="activity at 100 µM" value_observed=0
molecule="Clc1cccc(-c2cccc(Cl)c2)c1 [PCB11]" reported_property="activity at 100 µM" value_observed=0
molecule="Oc1ccc(O)c(-c2ccc(Cl)cc2)c1 [2',5'-DiOH PCB3]" reported_property="activity at 100 µM" value_observed=0
molecule="O=S(=O)(O)Oc1cc(Cl)ccc1-c1ccccc1 [2-yl PCB 3 sulfate]" reported_property="activity at 100 µM" value_observed=106
